# System: SN12C renal
# testSummary: NCI-60 one-dose screen, 48 h
# appliedConditions: 10 µM unless noted
This is part of a sample that, as a whole, favours compounds with a hit. Of some 83,000 tested, about 20% had one in any assay. Active and inactive are the calls of the source. Rule for the calls: active = growth percent below 10; inactive = the rest.
Classes used: active, inactive

{"columns": ["sampleSmiles", "labelClass"],
 "data": [
  ["CN1CCN(Cc2ccc(NC(=O)c3cncc(C#Cc4cnc5ccc(N6CCSCC6)nn45)c3)cc2C(F)(F)F)CC1", "active"],
  ["O=C(N/N=C/c1ccc(Br)s1)c1[nH]c2ccc(Br)cc2c1-c1ccccc1", "inactive"],
  ["O=C(CSc1nc2sc3c(c2c(=O)n1-c1ccc(Cl)cc1)CCCC3)N/N=C/c1ccc(F)cc1", "inactive"],
  ["O=C1Nc2cc(Cl)ccc2/C1=C\\c1ccc(OCc2ccc([N+](=O)[O-])cc2)cc1", "inactive"],
  ["Cc1nc(-c2cc3ccccc3oc2=O)ccc1C(=O)/C=C/c1ccccn1", "inactive"]
]}
